Data credit: patent US12605305B2

Assay: Compatibility of cationic antibacterial agent with EDTA-2Na solution
Type: physicochemical
Details: 10% EDTA-2Na solution mixed 1:1 with 0.2% agent solution, room temperature, dark, 7 days
Method: Materials to be tested: sodium citrate, potassium citrate, lithium citrate, citric acid, EDTA-2Na. Each of the citric acid metal salts to be tested was prepared as a 20% aqueous solution; the citric acid to be tested was prepared as a 20% aqueous solution; the EDTA-2Na to be tested was prepared as a 10% aqueous solution; and the cationic antibacterial agent to be tested was prepared as a 0.2% aqueous solution. […]
parameter: Phenomenon (compatibility with EDTA-2Na solution)

>>> result("CC(=O)O.CC(=O)O.NC(=N\\CCCCCC/N=C(N)/N=C(\\N)Nc1ccc(Cl)cc1)/N=C(\\N)Nc1ccc(Cl)cc1 [chlorhexidine acetate, reference compound]")
"+"
>>> result("CCCCCCCCCCCC[N+](C)(C)C.[Cl-] [dodecyl trimethyl ammonium chloride]")
"−"
>>> result("CCCCCCCCCCCC[N+](C)(C)Cc1ccccc1.[Br-] [dodecyl dimethyl benzyl ammonium bromide]")
"−"
>>> result("CCCCCCCCCCCC[N+](C)(C)Cc1ccccc1.[Cl-]")
"−"
>>> result("CCCCCCCCCCCCCCCC[n+]1ccccc1.[Cl-] [hexadecyl pyridinium chloride, reference compound]")
"−"
>>> result("N=C(NCCCCCCNC(=N)NC(=N)Nc1ccc(Cl)cc1)NC(=N)Nc1ccc(Cl)cc1.O=C(O)[C@H](O)[C@@H](O)[C@H](O)[C@H](O)CO.O=C(O)[C@H](O)[C@@H](O)[C@H](O)[C@H](O)CO [chlorhexidine gluconate, reference compound]")
"+"

* * *

Assay: Compatibility of cationic antibacterial agent with potassium citrate solution
Format: physicochemical
Conditions: 20% potassium citrate solution mixed 1:1 with 0.2% agent solution, room temperature, dark, 7 days
parameter: Phenomenon (compatibility with potassium citrate solution)

>>> result("CC(=O)O.CC(=O)O.NC(=N\\CCCCCC/N=C(N)/N=C(\\N)Nc1ccc(Cl)cc1)/N=C(\\N)Nc1ccc(Cl)cc1 [chlorhexidine acetate, reference compound]")
"+"
>>> result("CCCCCCCCCCCCCCCC[n+]1ccccc1.[Cl-] [hexadecyl pyridinium chloride, reference compound]")
"−"
>>> result("CCCCCCCCCCCC[N+](C)(C)Cc1ccccc1.[Br-] [dodecyl dimethyl benzyl ammonium bromide]")
"−"

* * *

Experiment: Compatibility of cationic antibacterial agent with citric acid solution
Type: physicochemical
Conditions: 20% citric acid solution mixed 1:1 with 0.2% agent solution, room temperature, dark, 7 days
parameter: Phenomenon (compatibility with citric acid solution)

>>> result("CC(=O)O.CC(=O)O.NC(=N\\CCCCCC/N=C(N)/N=C(\\N)Nc1ccc(Cl)cc1)/N=C(\\N)Nc1ccc(Cl)cc1 [chlorhexidine acetate, reference compound]")
"+"
>>> result("CCCCCCCCCCCC[N+](C)(C)Cc1ccccc1.[Cl-]")
"−"
>>> result("N=C(NCCCCCCNC(=N)NC(=N)Nc1ccc(Cl)cc1)NC(=N)Nc1ccc(Cl)cc1.O=C(O)[C@H](O)[C@@H](O)[C@H](O)[C@H](O)CO.O=C(O)[C@H](O)[C@@H](O)[C@H](O)[C@H](O)CO [chlorhexidine gluconate, reference compound]")
"+"
>>> result("CCCCCCCCCCCC[N+](C)(C)C.[Cl-] [dodecyl trimethyl ammonium chloride]")
"−"
>>> result("CCCCCCCCCCCCCCCC[n+]1ccccc1.[Cl-] [hexadecyl pyridinium chloride, reference compound]")
"−"
>>> result("CCCCCCCCCCCC[N+](C)(C)Cc1ccccc1.[Br-] [dodecyl dimethyl benzyl ammonium bromide]")
"−"
